B1: LINE1-mini (parent)
chain: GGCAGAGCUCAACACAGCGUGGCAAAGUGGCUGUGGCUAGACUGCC

Variants of: B1
PROTOCOL DETAILS: self-cleavage, relative activity (ratio to wild type); higher = more cleavage; in vitro, sequencing; the parent is a self-cleaving ribozyme
So basically, the class depends on measured self-cleavage, and the ranges are class A: < 0.06; class B: ≥ 0.06 and < 0.2; class C: ≥ 0.2

> print(dat)
    mutant.designation  assigned.label
 1                G19U         class C
 2           C10G U32A         class A
 3           A24G G36A         class B
 4            U9A U34G         class B
 5           G27A U32G         class C
 6            G2U A26U         class B
 7           C10U G30C         class C
 8           G29C U43G         class A
 9           G29C U34A         class C
10            U9C U28A         class A
